Let's look at some molecules and their measured inhibition at 1 µM.
measured target: serotonin-2 receptors (5HT2) (Rattus norvegicus, UniProt P14842)
Construct: employing brain cortical tissue; from tissue; host or cells: brain cortical tissue
Sequence (P14842 whole entry): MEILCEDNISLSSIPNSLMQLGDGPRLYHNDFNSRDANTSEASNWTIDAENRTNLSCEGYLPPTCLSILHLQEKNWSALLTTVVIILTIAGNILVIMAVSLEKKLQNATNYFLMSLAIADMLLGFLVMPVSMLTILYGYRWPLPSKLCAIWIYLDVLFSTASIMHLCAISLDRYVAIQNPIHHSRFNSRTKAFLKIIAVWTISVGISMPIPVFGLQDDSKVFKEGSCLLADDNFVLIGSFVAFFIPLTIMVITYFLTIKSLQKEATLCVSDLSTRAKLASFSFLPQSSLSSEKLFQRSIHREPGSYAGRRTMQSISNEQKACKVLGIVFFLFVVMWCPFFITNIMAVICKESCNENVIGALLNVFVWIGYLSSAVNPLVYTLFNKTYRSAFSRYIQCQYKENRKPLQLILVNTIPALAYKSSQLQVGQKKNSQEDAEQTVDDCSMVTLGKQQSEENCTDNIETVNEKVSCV
test description: serotonin-2 (5HT2) receptor binding in brain cortical tissue
cond: read-out: % Inhibition of serotonin 5HT2 binding, at 1 μM

INSERT INTO assay_data (molecule, result_value) VALUES
  ('Fc1ccc2[nH]c3c(c2c1)CN(CCCc1cccnc1)CC3 [A, reference compound]', '78%'),
  ('[O-][n+]1cccc(CCCN2CCc3[nH]c4ccc(F)cc4c3C2)c1 [D]', '68%'),
  ('[O-][n+]1cccc(CCC[N+]2([O-])CCc3[nH]c4ccc(F)cc4c3C2)c1 (stereo not shown) [B]', '18%');

Inquiry: Dear colleague, please send me the reported inhibition at 1 µM for [O-][N+]1(CCCc2cccnc2)CCc2[nH]c3ccc(F)cc3c2C1 (stereo not shown) [C] when you can.
Reply text: 18%

Data origin: patent US4798896A
